Attribution: ChEMBL document CHEMBL1201862

GI50 by entry:
Test system: SR
Assay explanation: NCI tumour cell line growth inhibition, 48 h
Active and inactive are the calls of the source. Cut-off read from the data, not from the text of the source: active = GI50 up to about 1.1 µM and inactive = higher. Residues, ends and D or L forms follow the SMILES beside them. *: point of attachment. Cbz = O=C(OCc1ccccc1)*

Examples from the recorded data:
// field: GI50; key: CC1(C)Oc2ccc3ccc(=O)oc3c2C(O)C1O (stereo not given) ; value = 59.4 µM (inactive)

// field: GI50; key: `CC1=C/C(=C2/N=C(N(C)C)SS2)C(C)=N1.[O-][Cl+3]([O-])([O-])O` ; value = > 100 µM (inactive)

// field: GI50; key: N#CC(c1ccccc1)c1nc2ccc(N)cc2[n+]([O-])c1C(C#N)c1ccccc1 (stereo not given) ; value = 23.8 µM (inactive)

// field: GI50; key: `COc1cc2c(/C=C3/C(=O)N(C)c4ccccc43)c(Cl)[nH]c2cc1C` ; value = 0.274 µM (active)

// field: GI50; key: CC(NC(=O)C(NC(=O)OCc1ccccc1)C(C)C)C(=O)NCC(=O)O (stereo not drawn) (Cbz-Val-Ala-Gly-OH; configuration not given here) ; value = > 100 µM (inactive)

More entries:
// field: GI50; key: `Cc1c2cccc-2c(N(C)C)cc2c1[nH]c1ccccc12` ; value = 1.58 µM (inactive)

// field: GI50; key: `OC(c1ccccc1)(c1ccccc1)c1ccncc1` ; value = > 100 µM (inactive)

// field: GI50; key: O=C(O)/C=C(/C(=O)O)C12CCN3CC4=CCOC5CC(=O)NC1C5C4CC32 (stereo not given) ; value = > 100 µM (inactive)

// field: GI50; key: `O=Cc1cc2sc(C=O)cc2s1` ; value = > 100 µM (inactive)

// field: GI50; key: C/C=C(\C)C(=O)OC1/C=C(\C)CC/C=C(\C)CC2OC(=O)C(C)(OC(C)=O)C12 (stereo not given) ; value = > 100 µM (inactive)
